Known cytotoxicity at 70.5 h of a selection of compounds
# assay_protocol: Human HepG2 cell viability assay in 384 well format
# Format: toxicity, cell-based
# Design: dose 125 nL, time 70.5 hour; concentration not given beside the values
# condition_description: HepG2 cells, read-out: Inhibition
Give the value, in units of %, as a plain number.

Worked examples follow.
> print(dat)
                                   compound          property.label  obs.value
1     CC(C)NC(=O)N1CCC2(CC1)Cc1ccccc1CNC2=O  cytotoxicity at 70.5 h      -4.51
2  CCOCC(O)CN1CCN(C(=O)c2cccc3[nH]ncc23)CC1 (stereo not drawn)  cytotoxicity at 70.5 h      -4.87
3  O=C(Nc1cccc(OC(F)F)c1)C1CN(S(=O)(=O)C2CC2)C1  cytotoxicity at 70.5 h      0.345
4  COc1ccc(C(=O)N2CCCCC2c2nc(C)cs2)nn1 (stereo not drawn)  cytotoxicity at 70.5 h       23.8
5  CCN(CC)c1ncc(CNC2CCc3nc(C)nn3C2)s1 (stereo not drawn)  cytotoxicity at 70.5 h       4.79

Prompt: # input compound: CCC(CNS(C)(=O)=O)Oc1ccccc1C (stereo not drawn) ; wanted: its cytotoxicity at 70.5 h
Completion: -3.25

Prompt: Proceed to `CNC(=O)N1C[C@H]2N(c3ncccn3)CCC[C@@]2(C(=O)NCC2CC2)C1`
Completion: 0.471

Prompt: Proceed to O=C1CN(C(=O)C2CCOC2)CCN1Cc1ccc(Cl)cc1 (stereo not drawn)
Completion: 23.8

Prompt: Proceed to CS(=O)(=O)CCC(=O)N1CCC2(CCCN(C3CCOCC3)C2=O)C1 (stereo not drawn)
Completion: -9.61

Prompt: Proceed to CCC(C)(CO)NC(=O)Nc1cc2c(cc1SC)OCCO2 (stereo not drawn)
Completion: -1.22

Prompt: Proceed to `COc1cc2[nH]c(=O)c(CN3CCC[C@@H]3C(N)=O)cc2c(OC)c1OC`
Completion: 23.4

Prompt: Proceed to `Oc1nc(C2CCN(Cc3ccccn3)CC2)cc2ccccc12`
Completion: 32.3

* * *

# assay_protocol: Human HepG2 cell viability assay in 384 well format
# Type: toxicity, cell-based
# Parameters: dose 125 nL, time 70.5 hour; concentration not given beside the values
# condition_description: HepG2 cells, read-out: Inhibition
property_label: cytotoxicity at 70.5 h (%)
Give the value, in units of %, as a plain number.

> print(dat)
                                   compound  obs.value
1  CC(=O)N1CCN(CCNS(=O)(=O)c2cc(F)ccc2C)CC1       4.62
2      CCc1nnc2n1CCN(C(=O)c1cc(Cl)c[nH]1)C2       -1.1
3    CC(C)n1cc(CN2CCCN(C(=O)c3ccco3)CC2)cn1         21
4  c1cc(-c2noc(-c3cc(C4CC4)on3)n2)cc(N2CCCCC2)n1      -7.87
5  O=C(c1cscn1)N1C[C@H]2CN(Cc3nccs3)C[C@H]2C1      -1.36

Prompt: # input compound: Cn1cnnc1CNC(=O)C1CCCN(Cc2cccc(F)c2)C1 (stereo unspecified) ; wanted: its cytotoxicity at 70.5 h
Completion: -13.7

Prompt: Proceed to `CCCn1nc2c(cc1=O)CN(Cc1ccccn1)CC2`
Completion: 0.0556

* * *

Known cytotoxicity at 70.5 h of a selection of compounds
# assay_protocol: Human HepG2 cell viability assay in 384 well format
# Assay type: toxicity, cell-based
# Set-up: dose 125 nL, time 70.5 hour; concentration not given beside the values
# condition_description: HepG2 cells, read-out: Inhibition
Give the value, in units of %, as a plain number.

> print(dat)
                                   compound  obs.value
1  Cc1cc(C)c(CNC(=O)NCC2Cc3ccccc3O2)c(=O)[nH]1 (stereo unspecified)      -6.51

Prompt: # input compound: O=C1NC2(CCN(C(=O)c3ccccc3)CC2)CC1c1cccnc1 (stereo unspecified) ; wanted: its cytotoxicity at 70.5 h
Completion: 2.71

Prompt: Proceed to `CSCC[C@H](NC(=O)N1CCC(Cc2ccccc2)CC1)C(=O)O`
Completion: -13.4

Prompt: Proceed to `COCCNCc1cc2cc(C)cc(C)c2[nH]c1=O`
Completion: -4.55

Prompt: Proceed to `COc1ccc(C(=O)Nc2cc(CC(C)C)nn2C)cc1`
Completion: 7.52

Prompt: Proceed to `Cn1cc(CN2CCC[C@]3(C(=O)O)CN(c4cnccn4)CC[C@@H]23)cn1`
Completion: -2.41

Prompt: Proceed to CC(C1CC1)n1nccc1NC(=O)CN(C)C(=O)OC(C)(C)C (stereo unspecified)
Completion: 27.9

Prompt: Proceed to O=C1CSc2ccc(C(=O)N3CCCC(n4ccnc4)C3)cc2N1 (stereo unspecified)
Completion: -1.51

Prompt: Proceed to Cc1ccc(CC(=O)N2CCN(C3CCOC3=O)CC2)cc1 (stereo unspecified)
Completion: -1.49

Prompt: Proceed to `CCC[C@@H]1CN(c2ncnc3ccsc23)C[C@H]1NS(C)(=O)=O`
Completion: -8.21

Prompt: Proceed to Cn1c(CN2CCOC(CCc3ccncn3)C2)nc2ccccc21 (stereo unspecified)
Completion: -3.77

* * *

Known cytotoxicity at 70.5 h of a selection of compounds
# assay_protocol: Human HepG2 cell viability assay in 384 well format
# Format: toxicity, cell-based
# Design: dose 125 nL, time 70.5 hour; concentration not given beside the values
# condition_description: HepG2 cells, read-out: Inhibition
Give the value, in units of %, as a plain number.

Worked examples follow.
> print(dat)
                                   compound  obs.value
1  COc1ccccc1C(O)CNc1nccc(-c2ccc(C)nc2C)n1 (configuration not stated)        -14
2  CCC(NC(=O)c1nn(C)cc1C(=O)O)c1ccccc1 (configuration not stated)      -15.2
3       Cc1ccc2cc(CNCCN3CCCC3)c(=O)[nH]c2c1     -0.158
4  Cc1cc(NC2CC3(CCN(Cc4csc(C)n4)C3)C2)ncn1 (configuration not stated)      -9.59
5      C[C@@H]1C[C@H]2CN(Cc3nccs3)C[C@H]2O1      -10.9

Prompt: # input compound: CN(C)C(C(=O)NCCSc1ncn[nH]1)c1cccc(F)c1 (configuration not stated) ; wanted: its cytotoxicity at 70.5 h
Completion: 28.8

Prompt: Proceed to Cc1cccc(C2CCCN(C(=O)c3ccncc3)C2)n1 (configuration not stated)
Completion: -7.3

* * *

# assay_protocol: Human HepG2 cell viability assay in 384 well format
# Format: toxicity, cell-based
# Set-up: dose 125 nL, time 70.5 hour; concentration not given beside the values
# condition_description: HepG2 cells, read-out: Inhibition
property_label: cytotoxicity at 70.5 h (%)
Give the value, in units of %, as a plain number.

Worked examples follow.
> print(dat)
                                   molecule  obs.value
1  COCC(=O)N1CCCCC1c1ccncn1 (stereo not drawn)       10.7
2  COc1ncccc1CNC(=O)C1CC(=O)N(C)C1 (stereo not drawn)       0.32
3  N#CC(NC(=O)CCCOc1cccnc1)c1ccccc1Cl (stereo not drawn)      -3.34
4  CCN(CC)C(=O)[C@@H]1C[C@H](NC(=O)c2ccn(C(C)(C)C)c2)CN1C      -1.68
5  Cc1cccc(-c2nc(CN(Cc3cccs3)CC3CCCO3)no2)c1 (stereo not drawn)      -1.72

Prompt: # input molecule: `CCCNC(=O)CCC(=O)Nc1ccc(-n2cncn2)c(F)c1` ; wanted: its cytotoxicity at 70.5 h
Completion: 36

Prompt: Proceed to CC(C)COC(C)C(=O)N1CCCCCC1 (stereo not drawn)
Completion: -8.79

* * *

# assay_protocol: Human HepG2 cell viability assay in 384 well format
# Format: toxicity, cell-based
# Parameters: dose 125 nL, time 70.5 hour; concentration not given beside the values
# condition_description: HepG2 cells, read-out: Inhibition
Known cytotoxicity at 70.5 h of a selection of compounds
Give the value, in units of %, as a plain number.

Worked examples follow.
> print(dat)
                                   compound  obs.value
1  NCC(=O)N1CCCC1c1n[nH]cc1-c1ccccc1F (stereo unspecified)       25.4
2  CCC[C@@H]1CN(Cc2cc3c(cc2OC)OCO3)C[C@H]1C(=O)O      -2.47
3  CN1[C@@H](C(=O)NCC2CC2)C[C@@H]2CN(Cc3ccoc3)C[C@@H]21       13.7

Prompt: # input compound: CC(C)C(NC(N)=O)C(=O)N1CCN(c2ccccc2Cl)C(=O)C1 (stereo unspecified) ; wanted: its cytotoxicity at 70.5 h
Completion: -9.59

Prompt: Proceed to c1ccc(C2CCCN2Cc2nnnn2C2CC2)cc1 (stereo unspecified)
Completion: -2.74

Prompt: Proceed to CCc1cnc(CCNC(=O)N2CCCC(c3ncc[nH]3)C2)s1 (stereo unspecified)
Completion: 1.32
